Provenance of the data: patent US20230029453A1

# test target: T1, HLA-B*07:02 (human, biotinylated heavy chain)
# T1 construct: Conditional HLA class I complex as for m1
# assay text: UV peptide exchange; HLA class I ELISA

binder	units of measure	exchange rate with Pos
NMVENGCYL (Synthetic 9-mer) [P59 9-mer NMVENGCYL (FOXA1 F254V)]	%	7.5
STRRAVRRM (Synthetic 9-mer) [P16 9-mer STRRAVRRM (MSMB-NCOA4 fusion)]	%	13.7
NSKMALNSL (Synthetic 9-mer) [P35 9-mer NSKMALNSL (TMPRSS2-ERG fusion)]	%	12.1
IQYSCMGLM (Synthetic 9-mer) [P50 9-mer IQYSCMGLM (AR W742C)]	%	10.4
FPVGAEGTF (Synthetic 9-mer) [P27 9-mer FPVGAEGTF (FAM126B-ORC2 fusion)]	%	7.8
FFKRAAEGF (Synthetic 9-mer) [P77 9-mer FFKRAAEGF (AR-V3)]	%	14.2
